The reader will find reported log10 of IC50 values listed item by item below.
Molecular target: MLL1-ASH2L/RbBP5/WDR5/DPY30
Test: Inhibition of recombinant human MLL1 complex (MLL1/Ash2L/RbBP5/WDR5/DPY-30) expressed in Escherichia coli Rosetta 2 (DE3) cells using H3 (1 to 21) peptide as substrate incubated for 1 hr in presence of 3[H] SAM by […] assay
A value of 2 here means IC50 of 100 in nM, since values are log10.

Some solved cases for reference:
ENTRY SMILES	log10 of IC50
Nc1ncnc2c1ncn2[C@@H]1O[C@H](CN(CC[C@H](N)C(=O)O)CC2CN(Cc3cccc(Cl)c3)C2)[C@@H](O)[C@H]1O	2.00
Nc1ncnc2c1ncn2[C@@H]1O[C@H](CN(CC[C@H](N)C(=O)O)CC2CN(CCCc3ccccc3)C2)[C@@H](O)[C@H]1O	1.47
CCCCN1CC(CN(CC[C@H](N)C(=O)O)C[C@H]2O[C@@H](n3cnc4c(N)ncnc43)[C@H](O)[C@@H]2O)C1	1.86

In plain terms, NCCN(CC[C@H](N)C(=O)O)C[C@H]1O[C@@H](n2cnc3c(N)ncnc32)[C@H](O)[C@@H]1O has a documented log10 of IC50 of 2.77

In plain terms, Nc1ncnc2c1ncn2[C@@H]1O[C@H](CN(CC[C@H](N)C(=O)O)CC2CN(CCCC3CCCC3)C2)[C@@H](O)[C@H]1O has a documented log10 of IC50 of 1.41

----------
Target: MLL1-ASH2L/RbBP5/WDR5/DPY30
Experiment: Inhibition of recombinant human MLL1 complex (MLL1/Ash2L/RbBP5/WDR5/DPY-30) expressed in Escherichia coli Rosetta 2 (DE3) cells using H3 (1 to 21) peptide as substrate incubated for 1 hr in presence of 3[H] SAM by […] assay
RECORDED METRIC: log10 of IC50 (log10 of the value in nM)
A value of 2 here means IC50 of 100 in nM, since values are log10.

COMPOUND	ASSAY TARGET	log10 of IC50
Nc1ncnc2c1ncn2[C@@H]1O[C@H](CN(CC[C@H](N)C(=O)O)CC2CN(Cc3ccsc3)C2)[C@@H](O)[C@H]1O	MLL1-ASH2L/RbBP5/WDR5/DPY30	1.18

In plain terms, Nc1ncnc2c1ncn2[C@@H]1O[C@H](CN(CC[C@H](N)C(=O)O)CC2CN(Cc3ccccc3Cl)C2)[C@@H](O)[C@H]1O has a documented log10 of IC50 of 2.18

In plain terms, Nc1ncnc2c1ncn2[C@@H]1O[C@H](CN(CC[C@H](N)C(=O)O)C2CC(CNCCCc3ccccc3)C2)[C@@H](O)[C@H]1O (some centres undefined) has a documented log10 of IC50 of 2.65

In plain terms, Nc1ncnc2c1ncn2[C@@H]1O[C@H](CN(CC[C@H](N)C(=O)O)CC2CN(CCC(c3ccccc3)c3ccccc3)C2)[C@@H](O)[C@H]1O has a documented log10 of IC50 of 2.14

In plain terms, Nc1ncnc2c1ncn2[C@@H]1O[C@H](CN(CC[C@H](N)C(=O)O)CC2CN(Cc3cccs3)C2)[C@@H](O)[C@H]1O has a documented log10 of IC50 of 1.82

In plain terms, Nc1ncnc2c1ncn2[C@@H]1O[C@H](CN(CC[C@H](N)C(=O)O)CC2CN(Cc3ccc(Cl)cc3)C2)[C@@H](O)[C@H]1O has a documented log10 of IC50 of 1.75

In plain terms, Nc1ncnc2c1ncn2[C@@H]1O[C@H](CN(CC[C@H](N)C(=O)O)C2CC(NCCCC3CCCC3)C2)[C@@H](O)[C@H]1O (some centres undefined) has a documented log10 of IC50 of 2.10
